- TARGET_ENTITY: Acetylcholinesterase (Rattus norvegicus, UniProt P37136)
- Sequence (P37136 whole entry): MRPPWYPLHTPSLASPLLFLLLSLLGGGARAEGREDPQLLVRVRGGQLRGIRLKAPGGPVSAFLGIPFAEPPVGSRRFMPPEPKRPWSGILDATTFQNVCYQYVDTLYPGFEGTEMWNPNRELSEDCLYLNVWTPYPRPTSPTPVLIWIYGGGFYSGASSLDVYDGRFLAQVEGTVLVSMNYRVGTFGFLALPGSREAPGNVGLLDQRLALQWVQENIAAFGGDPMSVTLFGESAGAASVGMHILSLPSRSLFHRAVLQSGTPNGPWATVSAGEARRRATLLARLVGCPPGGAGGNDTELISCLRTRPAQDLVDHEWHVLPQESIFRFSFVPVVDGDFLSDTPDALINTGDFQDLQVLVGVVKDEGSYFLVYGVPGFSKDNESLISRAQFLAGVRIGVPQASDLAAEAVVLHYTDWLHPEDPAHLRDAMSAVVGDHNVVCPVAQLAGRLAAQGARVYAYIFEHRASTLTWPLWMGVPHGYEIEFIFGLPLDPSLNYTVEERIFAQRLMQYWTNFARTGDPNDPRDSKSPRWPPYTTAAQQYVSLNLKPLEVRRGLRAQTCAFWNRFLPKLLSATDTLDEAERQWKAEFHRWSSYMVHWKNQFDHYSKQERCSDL
pIC50: −log10 of the molar value.
Binary call on pIC50: 1 from 7 upward, -1 beneath that.

query: Has CN1c2ccccc2C(NCCCCCCC(=O)NCCCNc2c3c(nc4ccccc24)CCCC3)c2ccc(Cl)cc2S1(=O)=O (configuration not stated) a recorded pIC50 greater than or equal to 7?
result: 1

query: API: above_or_equal(metric=pIC50, cutoff=7) for item CN1c2ccccc2C(NCCCCCCC(=O)NCCCCNc2c3c(nc4cc(Cl)ccc24)CCCC3)c2ccc(Cl)cc2S1(=O)=O (configuration not stated)
result: 1

query: // inclusive: pIC50 at least 7? input: CN1c2ccccc2C(NCCCCCCC(=O)NCCCCCCCCNc2c3c(nc4cc(Cl)ccc24)CCCC3)c2ccc(Cl)cc2S1(=O)=O (configuration not stated)
result: -1

query: Exam item: decide whether the reported pIC50 for CN1c2ccccc2C(NCCCCCCC(=O)NCCNc2c3c(nc4cc(Cl)ccc24)CCCC3)c2ccc(Cl)cc2S1(=O)=O (configuration not stated) is at least 7.
result: 1

query: Has CN1c2ccccc2C(NCCCCCCC(=O)NCCCCCNc2c3c(nc4cc(Cl)ccc24)CCCC3)c2ccc(Cl)cc2S1(=O)=O (configuration not stated) a recorded pIC50 greater than or equal to 7?
result: 1
